Assign pKd to each entry below.
target: IL36R; test: Kd (SPR)
One number for each entry, as −log10 of the molar value.

- binder: "unnamed (protein) chain 1: QVQLVQSGAEVKKPGASVKVSCKASGYSFTSSWIHWVKQAPGQGLEWMGEINPGNVRTNYNENFRNKVTMTVDTSISTAYMELSRLRSDDTAVYYCTRVQYGYPYFDYWGQGTLVTVSS chain 2: QIVLTQSPGTLSLSPGERATMTCTASSSVSSSYFHWYQQKPGQAPRLWIYRTSRLASGVPDRFSGSGSGTDFTLTISRLEPEDAATYYCHQFHRSPLTFGAGTKLEIK"
  pKd: 8.73
- binder: "unnamed (protein) chain 1: QVQLVQSGAEVKKPGASVKVSCKASGYSFTSSWIHWVKQAPGQGLEWMGEINPGNVRTNYNENFRNKVTMTVDTSISTAYMELSRLRSDDTAVYYCTRVQYGEPYFDYWGQGTLVTVSS chain 2: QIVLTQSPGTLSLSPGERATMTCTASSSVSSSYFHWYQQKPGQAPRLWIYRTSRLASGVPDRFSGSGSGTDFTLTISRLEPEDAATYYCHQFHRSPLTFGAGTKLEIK"
  pKd: 9.21

For every item in the list below, what is its measured pKd?
1. unnamed (protein) chain 1: QVQLVQSGAEVKKPGASVKVSCKASGYTFTSNWIHWVKQAPGQGLEWMGEIYPGNSNTNYNENFRNKVTMTVDTSISTAYMELSRLRSDDTAVYYCTRVRFGEPWFDYWGQGTLVTVSS chain 2: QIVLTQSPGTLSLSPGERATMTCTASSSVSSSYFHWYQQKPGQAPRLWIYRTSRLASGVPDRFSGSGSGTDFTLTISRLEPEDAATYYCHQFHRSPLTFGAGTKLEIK
2. unnamed (protein) chain 1: QVQLVQSGAEVKKPGASVKVSCKASGYSFTSSWIHWVKQAPGQGLEWMGEINPGNVRTNYNENFRNKVTMTVDTSISTAYMELSRLRSDDTAVYYCTRVRFGEPYFDYWGQGTLVTVSS chain 2: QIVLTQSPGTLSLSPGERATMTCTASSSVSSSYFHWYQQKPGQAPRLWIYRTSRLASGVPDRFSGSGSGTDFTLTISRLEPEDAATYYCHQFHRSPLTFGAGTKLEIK
3. unnamed (protein) chain 1: QVQLVQSGAEVKKPGASVKVSCKASGYSFTSSWIHWVKQAPGQGLEWMGEINPGNVRTNYNENFRNKVTMTVDTSISTAYMELSRLRSDDTAVYYCTRVSYGEPWFDYWGQGTLVTVSS chain 2: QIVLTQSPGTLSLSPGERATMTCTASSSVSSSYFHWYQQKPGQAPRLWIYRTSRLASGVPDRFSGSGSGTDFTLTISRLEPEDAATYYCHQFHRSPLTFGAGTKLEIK

RESULT:
1. 7.34
2. 8.48
3. 8.85
